- Test system: OVCAR-5 ovarian
- Experimental Details: NCI tumour cell line growth inhibition, 48 h
Observation Type: GI50

>>> meas_value("Nc1nc(-c2ccccc2)c(N=Nc2ccc(Cl)cc2Cl)s1")
"3580 nM"
>>> meas_value("CC(C)NC(=O)c1cc(-c2ccc(NC(=O)Nc3ccc(N4CCN(C)CC4)c(C(F)(F)F)c3)cc2)nc2cccnc12")
"1980 nM"
>>> meas_value("CC[C@]12C=CCN3CC[C@@]4(c5ccc(OC)cc5N(C)[C@H]4[C@@](O)(C(=O)OC)[C@@H]1OC(=O)CCCC[P+](c1ccc(C)cc1)(c1ccc(C)cc1)c1ccc(C)cc1)[C@@H]32")
"592 nM"
>>> meas_value("O=C(N/N=C/c1ccc(-c2ccc(O)cc2)o1)c1[nH]c2ccc(Br)cc2c1-c1ccccc1")
"515 nM"

====

- System: MDA-MB-468 breast
- Experimental Details: NCI tumour cell line growth inhibition, 48 h
Observation Type: TGI

>>> meas_value("O=c1[nH]c2ccccc2nc1-c1c[nH]c2ccccc12")
"> 100 µM"
>>> meas_value("C[C@]12CC[C@H]3[C@@H](CCC4=CC(=O)CC[C@@H]43)[C@@H]1CC[C@@H]2OC(=O)CCc1ccccc1")
"> 100 µM"
>>> meas_value("N/C(=N\\N=C\\c1ccc(-c2ccccc2)cc1)N[N+](=O)[O-]")
"> 100 µM"
>>> meas_value("N#C/C(=C\\c1c(-c2ccccc2)[nH]c2ccccc12)S(=O)(=O)c1ccccc1")
"> 28.3 µM"

====

- System: MDA-MB-468 breast
- Experimental Details: NCI tumour cell line growth inhibition, 48 h; in the data active = GI50 below about 0.43 µM; inactive = the rest
Possible outcomes: yes = active, no = inactive

>>> assigned_label("Cc1cc(NCc2cc(Nc3ccnc4cc(Cl)ccc34)ccc2F)nc(N2CCCC2)n1")
"no"
>>> assigned_label("CN(C)c1ccc(/C=C\\c2cccc[n+]2C)cc1")
"no"
>>> assigned_label("C=CC(=O)Nc1cccc(C)c1Nc1cc(-c2cccnc2Cc2c(C)c(OC)cc(OC)c2C)ncn1")
"no"
>>> assigned_label("Cc1ccc(-c2cc(-c3ccc(C)cc3)nc(NCCNc3ccnc4cc(Cl)ccc34)n2)cc1")
"no"
>>> assigned_label("COC(=O)C(Cc1ccccc1)NC(=O)NC(=O)NC(=O)CI (stereo unspecified)")
"no"
>>> assigned_label("CC1=C(CCC(C)N(C)Cc2ccc(OCCCN3CCCC3)cc2)C(C)(C)CCC1 (stereo unspecified)")
"no"
>>> assigned_label("N/C(=N\\N=C\\c1ccc(-c2ccccc2)cc1)N[N+](=O)[O-]")
"no"
>>> assigned_label("O=c1[nH]c2ccccc2nc1-c1c[nH]c2ccccc12")
"no"
>>> assigned_label("O=C(/C(=C/c1ccccc1)CN1CCCCC1)c1ccccc1")
"no"
>>> assigned_label("O=C(C1CCCCC1)[C@@H]1[C@]2(C(=O)NC3CCCCC32)[C@@H]2CCCN2[C@@]12C(=O)NC1CCC(Cl)CC12 (stereo partly specified)")
"no"
>>> assigned_label("Nc1ncnc2[nH]ncc12")
"yes"
